Target: human AhR (hAhR) (Homo sapiens)
Sequence (P35869 11-848): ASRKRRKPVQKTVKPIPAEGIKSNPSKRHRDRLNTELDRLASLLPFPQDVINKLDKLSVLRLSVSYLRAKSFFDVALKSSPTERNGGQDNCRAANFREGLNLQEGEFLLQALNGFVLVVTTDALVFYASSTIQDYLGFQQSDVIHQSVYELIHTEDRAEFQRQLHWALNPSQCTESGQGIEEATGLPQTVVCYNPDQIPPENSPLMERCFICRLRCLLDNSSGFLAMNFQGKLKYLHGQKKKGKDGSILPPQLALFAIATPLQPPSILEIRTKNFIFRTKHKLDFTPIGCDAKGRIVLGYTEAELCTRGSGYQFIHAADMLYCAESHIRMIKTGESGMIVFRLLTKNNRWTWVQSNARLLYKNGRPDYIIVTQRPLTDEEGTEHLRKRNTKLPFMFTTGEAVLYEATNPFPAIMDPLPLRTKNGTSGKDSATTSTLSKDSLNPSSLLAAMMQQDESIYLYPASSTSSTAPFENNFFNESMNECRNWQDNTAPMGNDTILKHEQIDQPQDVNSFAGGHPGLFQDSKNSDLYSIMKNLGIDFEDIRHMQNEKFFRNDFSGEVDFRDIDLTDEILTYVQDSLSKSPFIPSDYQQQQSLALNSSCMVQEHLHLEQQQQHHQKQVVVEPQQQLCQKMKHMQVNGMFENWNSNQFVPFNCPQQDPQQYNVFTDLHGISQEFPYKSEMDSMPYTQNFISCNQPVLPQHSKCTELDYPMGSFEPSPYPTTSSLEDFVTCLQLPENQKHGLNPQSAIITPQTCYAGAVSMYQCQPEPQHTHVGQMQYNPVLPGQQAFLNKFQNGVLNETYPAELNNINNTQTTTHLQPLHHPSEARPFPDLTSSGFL
Experiment: AhR-dependent pXRE-SV40-Luc luciferase reporter in HepG2 cells
Type: cell-based
Settings: read-out: EC50 for AhR luciferase reporter activity; HepG2 cells, 24 h treatment
measurement label: EC50

[
  {
    "compound": "Clc1ccc(-c2ccc(Cl)c(Cl)c2)cc1Cl",
    "result": "≥ 4 µM"
  },
  {
    "compound": "Clc1ccc(-c2cc(Cl)c(Cl)c(Cl)c2Cl)cc1",
    "result": "≥ 5 µM"
  }
]

Next item in the queue.
State its EC50: Clc1cc(-c2cc(Cl)c(Cl)c(Cl)c2)cc(Cl)c1Cl ≥ 7 µM

// data source = paper PMC6764862
